- Tested on: Staphylococcus aureus
- protocol-summary: Antibiotic activity against methicillin-resistant Staphylococcus aureus ATCC 700698 assessed as inhibition of bacterial growth incubated for 16 hrs in presence of 0.002% polysorbate 80
- Type: functional
Bridge positions count the residues as written; N and C are the ends. Square brackets hold non-standard residues; d marks the D form. Side chains are listed from the residue outwards. Peptide text beside a SMILES is read from it. I, II: the chains in the order shown. * marks the point of attachment. Ser(O-(NMe-dPhe-Ile)) = CC[C@H](C)[C@H](NC(=O)[C@@H](Cc1ccccc1)NC)C(=O)OC[C@H](N)C(=O)*; d(aIle) = CC[C@H](C)[C@@H](N)C(=O)O; dNMeF = CN[C@H](Cc1ccccc1)C(=O)O; Chg = N[C@H](C(=O)O)C1CCCCC1
Entries and their MIC values follow.
Entry format: amount then unit.

CC[C@H](C)[C@H](NC(=O)[C@H](NC(=O)[C@@H](CCCNC(=N)N)NC(=O)[C@@H](N)COC(=O)[C@@H](NC(=O)[C@@H](Cc1ccccc1)NC)[C@@H](C)CC)[C@@H](C)CC)C(=O)N[C@@H](CO)C(=O)N[C@H]1C(=O)N[C@@H](C)C(=O)N[C@@H](CC(C)C)C(=O)N[C@@H]([C@@H](C)CC)C(=O)O[C@H]1C (H-S([Ile-dNMeF])[dR][d(aIle)]IS[dT]ALI; ester 6-C) | 0.5 µg/mL
CC[C@H](C)[C@H](NC(=O)[C@@H](Cc1ccccc1)NC)C(=O)OC[C@H](N)C(=O)N[C@H](CCCNC(=N)N)C(=O)N[C@@H](C(=O)N[C@H](C(=O)OC[C@H](N)C(=O)N[C@H]1C(=O)N[C@@H](C)C(=O)N[C@@H](CC(C)C)C(=O)N[C@@H]([C@@H](C)CC)C(=O)O[C@H]1C)[C@@H](C)CC)[C@@H](C)CC (H-S([Ile-d(aIle)-dR-Ser(O-(NMe-dPhe-Ile))])[dT]ALI; ester 2-C) | 1 µg/mL
CC[C@H](C)[C@H](NC(=O)[C@@H](Cc1ccccc1)NC)C(=O)N[C@@H](CO)C(=O)N[C@H](CCC(N)=O)C(=O)N[C@@H](C(=O)N[C@H](C(=O)OC[C@H](N)C(=O)N[C@H]1C(=O)N[C@@H](C)C(=O)N[C@@H](C[C@H]2CNC(=N)N2)C(=O)N[C@@H]([C@@H](C)CC)C(=O)O[C@H]1C)[C@@H](C)CC)[C@@H](C)CC | 0.5 µg/mL
CC[C@H](C)[C@H](NC(=O)[C@@H](Cc1ccccc1)NC)C(=O)OC[C@H](N)C(=O)N[C@H](CCCNC(=N)N)C(=O)N[C@@H](C(=O)N[C@H](C(=O)OC[C@H](N)C(=O)N[C@H]1C(=O)N[C@@H](C)C(=O)N[C@@H](C2CCCCC2)C(=O)N[C@@H]([C@@H](C)CC)C(=O)O[C@H]1C)[C@@H](C)CC)[C@@H](C)CC (H-S([Ile-d(aIle)-dR-Ser(O-(NMe-dPhe-Ile))])[dT]A[Chg]I; ester 2-C) | 1 µg/mL

Query compound follows.
// MIC lookup, compound = CC[C@H](C)[C@H](NC(=O)[C@@H](Cc1ccccc1)NC)C(=O)N[C@@H](CO)C(=O)N[C@H](CCCNC(=N)N)C(=O)N[C@@H](C(=O)N[C@H](C(=O)OC[C@H](N)C(=O)N[C@H]1C(=O)N[C@@H](C)C(=O)N[C@@H](C2CCCCC2)C(=O)N[C@@H]([C@@H](C)CC)C(=O)O[C@H]1C)[C@@H](C)CC)[C@@H](C)CC (I: H-[dNMeF]IS[dR][d(aIle)]I / II: H-S[dT]A[Chg]I; ester I:C-II:1, II:2-II:C) , result: 1 µg/mL
